tested on: A549; test: Cytotoxicity against human A549 cells after 3 days by MTT assay; assay type: functional, cell-based; conditions: A549, 72 h
Measured IC50 of individual entries

Example results:
molecule | system.tested | reported.measurement
CCOP(=O)(OCC)C(NC(=S)NC(=O)[C@]1(C)CCC[C@]2(C)c3ccc(C(C)C)cc3/C(=N\O)C[C@@H]12)c1cccc(C)c1 (stereo partly drawn) | A549 | 12.9 µM
CCOP(=O)(OCC)C(NC(=S)NC(=O)[C@]1(C)CCC[C@]2(C)c3ccc(C(C)C)cc3C(=O)C[C@@H]12)c1ccccc1F (stereo partly drawn) | A549 | > 50 µM

Next:
Please fill in: IC50 reported for CCOP(=O)(OCC)C(NC(=S)NC(=O)[C@]1(C)CCC[C@]2(C)c3ccc(C(C)C)cc3/C(=N\O)C[C@@H]12)c1ccc(Cl)cc1 (stereo partly drawn) = 9.66 µM

* * *

test system: A549; assay: Cytotoxicity against human A549 cells after 3 days by MTT assay; type: functional, cell-based; conditions: A549, 72 h
Measured pIC50 of individual entries
FYI, pIC50 means -log10 of a concentration in mol per litre.

molecule | reported.measurement
CCOP(=O)(OCC)C(NC(=S)NC(=O)[C@]1(C)CCC[C@]2(C)c3ccc(C(C)C)cc3/C(=N\O)C[C@@H]12)c1cccc(F)c1 (some centres undefined) | 4.54
CC(C)c1ccc2c(c1)CC[C@H]1[C@](C)(C(=O)O)CCC[C@]21C [DEHYDROABIETIC ACID] | 4.10
CCOP(=O)(OCC)C(NC(=S)NC(=O)[C@]1(C)CCC[C@]2(C)c3ccc(C(C)C)cc3C(=O)C[C@@H]12)c1ccc(C)cc1 (some centres undefined) | 4.65
CCOP(=O)(OCC)C(NC(=S)NC(=O)[C@]1(C)CCC[C@]2(C)c3ccc(C(C)C)cc3/C(=N\O)C[C@@H]12)c1cccc(Cl)c1 (some centres undefined) | 4.72
CCOP(=O)(OCC)C(NC(=S)NC(=O)[C@]1(C)CCC[C@]2(C)c3ccc(C(C)C)cc3/C(=N\O)C[C@@H]12)c1ccc(C)cc1 (some centres undefined) | 4.75
CCOP(=O)(OCC)C(NC(=S)NC(=O)[C@]1(C)CCC[C@]2(C)c3ccc(C(C)C)cc3/C(=N\O)C[C@@H]12)c1ccc(OC)cc1 (some centres undefined) | 4.63
CCOP(=O)(OCC)C(NC(=S)NC(=O)[C@]1(C)CCC[C@]2(C)c3ccc(C(C)C)cc3C(=O)C[C@@H]12)c1cccc(F)c1 (some centres undefined) | 4.48
O=c1[nH]cc(F)c(=O)[nH]1 [FLUOROURACIL] | 4.46

Next:
Please fill in: pIC50 reported for CCOP(=O)(OCC)C(NC(=S)NC(=O)[C@]1(C)CCC[C@]2(C)c3ccc(C(C)C)cc3C(=O)C[C@@H]12)c1ccc(Cl)cc1 (some centres undefined) = 4.52

* * *

tested on: SK-OV-3; experiment: Cytotoxicity against human SKOV3 cells after 3 days by MTT assay; assay type: functional, cell-based; conditions: SK-OV-3, 72 h
experimental.endpoint: IC50 (µM)
Number in µM, nothing else.

compound | units.text | reported.measurement
CCOP(=O)(OCC)C(NC(=S)NC(=O)[C@]1(C)CCC[C@]2(C)c3ccc(C(C)C)cc3/C(=N\O)C[C@@H]12)c1cccc(C)c1 (stereo partly drawn) | µM | 28.6

Please fill in: IC50 reported for CCOP(=O)(OCC)C(NC(=S)NC(=O)[C@]1(C)CCC[C@]2(C)c3ccc(C(C)C)cc3C(=O)C[C@@H]12)c1cccc2ccccc12 (stereo partly drawn) = 27.3

Please fill in: IC50 reported for CCOP(=O)(OCC)C(NC(=S)NC(=O)[C@]1(C)CCC[C@]2(C)c3ccc(C(C)C)cc3/C(=N\O)C[C@@H]12)c1cccc(F)c1 (stereo partly drawn) = 25.2

* * *

test system: A549; experiment: Cytotoxicity against human A549 cells after 3 days by MTT assay; assay type: functional, cell-based; details: A549, 72 h
experimental.endpoint: IC50

Example results:
compound | system.tested | IC50
CCOP(=O)(OCC)C(NC(=S)NC(=O)[C@]1(C)CCC[C@]2(C)c3ccc(C(C)C)cc3/C(=N\O)C[C@@H]12)c1ccccc1OC (stereo partly specified) | A549 | 27.1 µM
CCOP(=O)(OCC)C(NC(=S)NC(=O)[C@]1(C)CCC[C@]2(C)c3ccc(C(C)C)cc3C(=O)C[C@@H]12)c1cccc(Br)c1 (stereo partly specified) | A549 | 42.5 µM
CCOP(=O)(OCC)C(NC(=S)NC(=O)[C@]1(C)CCC[C@]2(C)c3ccc(C(C)C)cc3C(=O)C[C@@H]12)c1cccc(Cl)c1 (stereo partly specified) | A549 | 44.1 µM
CCOP(=O)(OCC)C(NC(=S)NC(=O)[C@]1(C)CCC[C@]2(C)c3ccc(C(C)C)cc3/C(=N\O)C[C@@H]12)c1ccccc1 (stereo partly specified) | A549 | 27 µM
CCOP(=O)(OCC)C(NC(=S)NC(=O)[C@]1(C)CCC[C@]2(C)c3ccc(C(C)C)cc3C(=O)C[C@@H]12)c1cccc(C)c1 (stereo partly specified) | A549 | 37.1 µM

Next:
Please fill in: IC50 reported for CCOP(=O)(OCC)C(NC(=S)NC(=O)[C@]1(C)CCC[C@]2(C)c3ccc(C(C)C)cc3/C(=N\O)C[C@@H]12)c1ccc2ccccc2c1 (stereo partly specified) = > 50 µM

* * *

system: SK-OV-3; assay: Cytotoxicity against human SKOV3 cells after 3 days by MTT assay; assay type: functional, cell-based; conditions: SK-OV-3, 72 h
Measured IC50 of individual entries
Number in µM, nothing else.

compound | reported.measurement
CCOP(=O)(OCC)C(NC(=S)NC(=O)[C@]1(C)CCC[C@]2(C)c3ccc(C(C)C)cc3C(=O)C[C@@H]12)c1ccccc1Cl (stereo partly drawn) | 27.9

Summary: CCOP(=O)(OCC)C(NC(=S)NC(=O)[C@]1(C)CCC[C@]2(C)c3ccc(C(C)C)cc3C(=O)C[C@@H]12)c1ccc(OC)cc1 (stereo partly drawn) , SK-OV-3, IC50 = 49.9

* * *

test system: SK-OV-3; assay: Cytotoxicity against human SKOV3 cells after 3 days by MTT assay; assay type: functional, cell-based; details: SK-OV-3, 72 h
experimental.endpoint: IC50 (µM)
Number in µM, nothing else.

molecule | reported.measurement
CCOP(=O)(OCC)C(NC(=S)NC(=O)[C@]1(C)CCC[C@]2(C)c3ccc(C(C)C)cc3/C(=N\O)C[C@@H]12)c1ccccc1F (some centres undefined) | 19.9

Next:
Please fill in: IC50 reported for CCOP(=O)(OCC)C(NC(=S)NC(=O)[C@]1(C)CCC[C@]2(C)c3ccc(C(C)C)cc3C(=O)C[C@@H]12)c1cccc(OC)c1 (some centres undefined) = 8.41

* * *

test system: A549; assay: Cytotoxicity against human A549 cells after 3 days by MTT assay; format: functional, cell-based; conditions: A549, 72 h
experimental.endpoint: IC50 (µM)
Number in µM, nothing else.

Example results:
molecule | IC50 [µM]
CCOP(=O)(OCC)C(NC(=S)NC(=O)[C@]1(C)CCC[C@]2(C)c3ccc(C(C)C)cc3C(=O)C[C@@H]12)c1cccc2ccccc12 (stereo partly specified) | 32.6
CCOP(=O)(OCC)C(NC(=S)NC(=O)[C@]1(C)CCC[C@]2(C)c3ccc(C(C)C)cc3C(=O)C[C@@H]12)c1ccc(OC)cc1 (stereo partly specified) | 26.1
CCOP(=O)(OCC)C(NC(=S)NC(=O)[C@]1(C)CCC[C@]2(C)c3ccc(C(C)C)cc3C(=O)C[C@@H]12)c1cccc(OC)c1 (stereo partly specified) | 14.1

Please fill in: IC50 reported for CCOP(=O)(OCC)C(NC(=S)NC(=O)[C@]1(C)CCC[C@]2(C)c3ccc(C(C)C)cc3C(=O)C[C@@H]12)c1ccccc1Cl (stereo partly specified) = 22.5

Please fill in: IC50 reported for CCOP(=O)(OCC)C(NC(=S)NC(=O)[C@]1(C)CCC[C@]2(C)c3ccc(C(C)C)cc3/C(=N\O)C[C@@H]12)c1ccc(Br)cc1 (stereo partly specified) = 19

Please fill in: IC50 reported for CCOP(=O)(OCC)C(NC(=S)NC(=O)[C@]1(C)CCC[C@]2(C)c3ccc(C(C)C)cc3/C(=N\O)C[C@@H]12)c1ccc(F)cc1 (stereo partly specified) = 7

* * *

tested on: SK-OV-3; assay: Cytotoxicity against human SKOV3 cells after 3 days by MTT assay; assay type: functional, cell-based; conditions: SK-OV-3, 72 h
experimental.endpoint: pIC50
FYI, pIC50 means -log10 of a concentration in mol per litre.

Example results:
compound | pIC50
CCOP(=O)(OCC)C(NC(=S)NC(=O)[C@]1(C)CCC[C@]2(C)c3ccc(C(C)C)cc3/C(=N\O)C[C@@H]12)c1ccccc1OC (stereo partly drawn) | 4.75
CCOP(=O)(OCC)C(NC(=S)NC(=O)[C@]1(C)CCC[C@]2(C)c3ccc(C(C)C)cc3C(=O)C[C@@H]12)c1cccc(Br)c1 (stereo partly drawn) | 4.31
CCOP(=O)(OCC)C(NC(=S)NC(=O)[C@]1(C)CCC[C@]2(C)c3ccc(C(C)C)cc3C(=O)C[C@@H]12)c1ccc(Br)cc1 (stereo partly drawn) | 4.43
CCOP(=O)(OCC)C(NC(=S)NC(=O)[C@]1(C)CCC[C@]2(C)c3ccc(C(C)C)cc3/C(=N\O)C[C@@H]12)c1cccc(Br)c1 (stereo partly drawn) | 4.42
CCOP(=O)(OCC)C(NC(=S)NC(=O)[C@]1(C)CCC[C@]2(C)c3ccc(C(C)C)cc3C(=O)C[C@@H]12)c1ccc2ccccc2c1 (stereo partly drawn) | 4.61
CCOP(=O)(OCC)C(NC(=S)NC(=O)[C@]1(C)CCC[C@]2(C)c3ccc(C(C)C)cc3/C(=N\O)C[C@@H]12)c1ccc(C)cc1 (stereo partly drawn) | 5.05
CCOP(=O)(OCC)C(NC(=S)NC(=O)[C@]1(C)CCC[C@]2(C)c3ccc(C(C)C)cc3/C(=N\O)C[C@@H]12)c1ccc2ccccc2c1 (stereo partly drawn) | 4.39
CCOP(=O)(OCC)C(NC(=S)NC(=O)[C@]1(C)CCC[C@]2(C)c3ccc(C(C)C)cc3/C(=N\O)C[C@@H]12)c1ccccc1Cl (stereo partly drawn) | 4.40

Summary: CCOP(=O)(OCC)C(NC(=S)NC(=O)[C@]1(C)CCC[C@]2(C)c3ccc(C(C)C)cc3C(=O)C[C@@H]12)c1ccccc1 (stereo partly drawn) , SK-OV-3, pIC50 = 4.37

Summary: CCOP(=O)(OCC)C(NC(=S)NC(=O)[C@]1(C)CCC[C@]2(C)c3ccc(C(C)C)cc3C(=O)C[C@@H]12)c1ccc(Cl)cc1 (stereo partly drawn) , SK-OV-3, pIC50 = 4.50

Summary: CCOP(=O)(OCC)C(NC(=S)NC(=O)[C@]1(C)CCC[C@]2(C)c3ccc(C(C)C)cc3C(=O)C[C@@H]12)c1ccc(C)cc1 (stereo partly drawn) , SK-OV-3, pIC50 = 4.93

Summary: CCOP(=O)(OCC)C(NC(=S)NC(=O)[C@]1(C)CCC[C@]2(C)c3ccc(C(C)C)cc3/C(=N\O)C[C@@H]12)c1ccc(OC)cc1 (stereo partly drawn) , SK-OV-3, pIC50 = 4.51

The reported numbers originate from ChEMBL document CHEMBL2434931.
